Measured values drawn from paper PMC5976803 for this set.

Molecular target: anti-CLDN-5 ECR mAb clone 2B1
Sequence (chain, as listed by the source, chain 1 of 2): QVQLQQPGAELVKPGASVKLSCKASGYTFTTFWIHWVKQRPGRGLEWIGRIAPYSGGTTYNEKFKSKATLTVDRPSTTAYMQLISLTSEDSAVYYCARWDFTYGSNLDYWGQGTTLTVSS
Sequence (chain, as listed by the source, chain 2 of 2): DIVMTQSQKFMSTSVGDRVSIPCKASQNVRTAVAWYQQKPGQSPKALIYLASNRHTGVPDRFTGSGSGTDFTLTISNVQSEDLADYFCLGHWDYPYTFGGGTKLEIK
Experiment: proteoliposome ELISA
Settings: chain shown with the change;; parent: est. 1.0; read off a plot
PARAMETER_MEASURED: ratio to parent

Challenge: What measured ratio to parent goes with AGIA-tagged human CLDN-5, cell-free synthesized proteoliposome, O00501 V154A (protein) MGSAALEILGLVLCLVGWGGLILACGLPMWQVTAFLDHNIVTAQTTWKGLWMSCVVQSTGHMQCKVYDSVLALSTEVQAARALTVSAVLLAFVALFVTLAGAQCTTCVAPGPAKARVALTGGVLYLFCGLLALVPLCWFANIVVREFYDPSVPASQKYELGAALYIGWAATALLMVGGCLLCCGAWVCTGRPDLSFPVKYSAPRRPTATGDYDKKNYV ?
Response given: 1.1
